test system: HCV replicon 2B; assay: microbe, parasite or virus in culture; assay type: cell-based, Hepatitis C virus (HCV); details: HCV replicon 2B; Replicon Assay A; read-out: 2B IC50
pIC50: −log10 of the molar value.
Assign class by pIC50: not lower than 10 means 1; lower than 10 means 0.

Worked examples follow.
| Molecule | Class assignment |
| --- | --- |
| CCc1c2n(c3ccc(-c4cnc(C5CCCN5C(=O)C(NC(=O)OC)C(C)C)[nH]4)cc13)C(c1ccc(C3CC3)s1)Oc1cc(-c3cnc(C4CCCN4C(=O)C(NC(=O)OC)C(C)C)[nH]3)cc(F)c1-2 (single isomer, unassigned) [Compound 839] | 0 |
| COC(=O)NC(C(=O)N1CCCC1c1ncc(-c2cc(F)c3c(c2)OC(c2cc4c(s2)CC(C)(C)C4)n2c-3cc3cc(-c4cnc(C5CCCN5C(=O)C(NC(=O)OC)C(C)C)[nH]4)ccc32)[nH]1)C(C)C (mixture of isomers) [Compound 846] | 1 |
| COC(=O)NC(C(=O)N1CCCC1c1ncc(-c2cc(F)c3c(c2)OC(c2ccc(CC(C)(C)OC)s2)n2c-3cc3cc(-c4cnc(C5CCCN5C(=O)C(NC(=O)OC)C5CCOC(C)(C)C5)[nH]4)ccc32)[nH]1)C(C)C (single isomer, unassigned) [Compound 850] | 0 |
| COC(=O)NC(C(=O)N1CCCC1c1ncc(-c2cc(F)c3c(c2)OC(c2ccc(C4CC4)s2)n2c-3cc3cc(-c4cnc(C5CC6CC6N5C(=O)C(NC(=O)OC)C5CCOCC5)[nH]4)ccc32)[nH]1)C(C)C (mixture of isomers) [Compound 651] | 1 |
| COC(=O)N[C@H](C(=O)N1CCC[C@H]1c1ncc(-c2cc(F)c3c(c2)OC(c2ccc(C4CC4)s2)n2c-3c(C)c3cc(-c4cnc([C@@H]5CCCN5C(=O)[C@@H](NC(=O)OC)C(C)C)[nH]4)ccc32)[nH]1)C(C)C (single isomer, unassigned) [Compound 841] | 0 |

# next molecule below
Exercise: Could you tell me if the measured pIC50 of COC(=O)NC(C(=O)N1CCC[C@H]1c1ncc(-c2ccc3c(c2)cc2n3C(c3ccc(C(F)(F)F)s3)Oc3cc(-c4cnc([C@@H]5CCCN5C(=O)[C@@H](NC(=O)OC)C(C)C)[nH]4)cc(F)c3-2)[nH]1)C1C[C@@H](C)O[C@@H](C)C1 (single isomer, unassigned) [Compound 649] reaches 10 or more?
Solution: 0
